Where do these numbers come from? They come from PubChem BioAssay AID1745844.

# Test system: rodent lifetime carcinogenesis bioassay, tumor incidence TD50
# PROCEDURE SUMMARY: carcinogenic potency in animals, long-term in vivo studies, CPDB compilation (AID 1745844)
# CONDITION SUMMARY: mouse; strain Swiss albino; males; in drinking water; site: blood vessels; lesion: several types; types named in the paper; dosed 96 weeks; study length 100 weeks
ENDPOINT: TD50

[[record]]
line_notation = "CN(N)C=O"
reported_result = "3.47 mg/kg/day"


---

# Tested on: rodent lifetime carcinogenesis bioassay, tumor incidence TD50
# PROCEDURE SUMMARY: carcinogenic potency in animals, long-term in vivo studies, CPDB compilation (AID 1745844)
# CONDITION SUMMARY: mouse; strain B6C3F1; males; in feed; site: any site (literature study); lesion: several types; types named in the paper; dosed 80 weeks; study length 93 weeks
Activity calls are given as the source filed them. No rule for the calls is given here.
ENDPOINT: TD50

[[record]]
molecule = "ClC1C2(Cl)C3C4C5OC5C5C4C1(Cl)C(Cl)(C53)C2(Cl)Cl (stereo unspecified)"
reported_result = "0.494 mg/kg/day (inactive)"


---

Measured TD50 values are reported for all entries that follow.
# Tested on: rodent lifetime carcinogenesis bioassay, tumor incidence TD50
# PROCEDURE SUMMARY: carcinogenic potency in animals, long-term in vivo studies, CPDB compilation (AID 1745844)
# CONDITION SUMMARY: rat; strain Sprague-Dawley; females; in feed; site: all sites; lesion: lymphoblastic lymphoma; dosed 46 weeks; study length 66 weeks
ENDPOINT: TD50

[[record]]
compound = "CN(C)Nc1nc(-c2ccc([N+](=O)[O-])o2)cs1"
reported_result = "16.3 mg/kg/day"

[[record]]
compound = "O=C1NCCN1/N=C/c1ccc([N+](=O)[O-])o1"
reported_result = "82 mg/kg/day"

[[record]]
compound = "O=C1OC(CN2CCOCC2)CN1/N=C/c1ccc([N+](=O)[O-])o1 (stereo not drawn)"
reported_result = "39 mg/kg/day"


---

# Test system: rodent lifetime carcinogenesis bioassay, tumor incidence TD50
# PROCEDURE SUMMARY: carcinogenic potency in animals, long-term in vivo studies, CPDB compilation (AID 1745844)
# CONDITION SUMMARY: rat; strain Alpk:APfSD; males; inhaled; site: testis; lesion: Leydig-cell adenoma; dosed 104 weeks; study length 104 weeks
ENDPOINT: TD50

[[record]]
line_notation = "FCC(F)(F)F"
assayed_target = "rodent lifetime carcinogenesis bioassay, tumor incidence TD50"
endpoint = "TD50"
reported_result = "29900 mg/kg/day"


---

# System: rodent lifetime carcinogenesis bioassay, tumor incidence TD50
# PROCEDURE SUMMARY: carcinogenic potency in animals, long-term in vivo studies, CPDB compilation (AID 1745844)
# CONDITION SUMMARY: hamster; strain Syrian Golden; males; in drinking water; site: cecum; lesion: several types; types named in the paper; dosed 100 weeks; study length 100 weeks
ENDPOINT: TD50

[[record]]
line_notation = "CNN"
endpoint = "TD50"
reported_result = "42.1 mg/kg/day"


---

# System: rodent lifetime carcinogenesis bioassay, tumor incidence TD50
# PROCEDURE SUMMARY: carcinogenic potency in animals, long-term in vivo studies, CPDB compilation (AID 1745844)
# CONDITION SUMMARY: rat; strain Wistar; males; in feed; site: abdomen; lesion: liposarcoma; dosed 58 weeks; study length 89 weeks
Activity calls are given as the source filed them. No rule for the calls is given here.
ENDPOINT: TD50

[[record]]
line_notation = "CCSC[C@H](N)C(=O)O"
reported_result = "3630 mg/kg/day (inactive)"


---

# Test system: rodent lifetime carcinogenesis bioassay, tumor incidence TD50
# PROCEDURE SUMMARY: carcinogenic potency in animals, long-term in vivo studies, CPDB compilation (AID 1745844)
# CONDITION SUMMARY: mouse; strain CDF1; females; in feed; site: lung; lesion: adenocarcinoma; dosed 76 weeks; study length 85 weeks
Activity calls are given as the source filed them. The rule behind the calls is not given here.
ENDPOINT: TD50

[[record]]
line_notation = "CCn1cc(C(=O)O)c(=O)c2ccc(C)nc21"
reported_result = "1770 mg/kg/day (inactive)"


---

# Test system: rodent lifetime carcinogenesis bioassay, tumor incidence TD50
# PROCEDURE SUMMARY: carcinogenic potency in animals, long-term in vivo studies, CPDB compilation (AID 1745844)
# CONDITION SUMMARY: mouse; strain Charles River CD1; males; in feed; site: small intestine; lesion: several types; types named in the paper; dosed 113 weeks; study length 113 weeks
ENDPOINT: TD50

[[record]]
compound = "O=C1C2CC=CCC2C(=O)N1SC(Cl)(Cl)Cl (stereo unspecified)"
endpoint = "TD50"
reported_result = "2690 mg/kg/day"


---

# Test system: rodent lifetime carcinogenesis bioassay, tumor incidence TD50
# PROCEDURE SUMMARY: carcinogenic potency in animals, long-term in vivo studies, CPDB compilation (AID 1745844)
# CONDITION SUMMARY: rat; strain F344/DuCrj; males; in feed; site: small intestine; lesion: several types; types named in the paper; dosed 67 weeks; study length 67 weeks
ENDPOINT: TD50

[[record]]
line_notation = "Cc1cccn2c1nc1ccc(N)nc12"
assayed_target = "rodent lifetime carcinogenesis bioassay, tumor incidence TD50"
endpoint = "TD50"
reported_result = "5.89 mg/kg/day"


---

# Tested on: rodent lifetime carcinogenesis bioassay, tumor incidence TD50
# PROCEDURE SUMMARY: carcinogenic potency in animals, long-term in vivo studies, CPDB compilation (AID 1745844)
# CONDITION SUMMARY: rat; strain ACI; females; in feed; site: pituitary gland; lesion: adenoma; dosed 77 weeks; study length 77 weeks
Calls of active or inactive are those of the source. The rule behind the calls is not given here.
ENDPOINT: TD50

[[record]]
line_notation = "C[C@@H]1O[C@@H](OC[C@H]2O[C@@H](Oc3c(-c4ccc(O)c(O)c4)oc4cc(O)cc(O)c4c3=O)[C@H](O)[C@@H](O)[C@@H]2O)[C@H](O)[C@H](O)[C@H]1O"
assayed_target = "rodent lifetime carcinogenesis bioassay, tumor incidence TD50"
reported_result = "8910 mg/kg/day (inactive)"


---

# Test system: rodent lifetime carcinogenesis bioassay, tumor incidence TD50
# PROCEDURE SUMMARY: carcinogenic potency in animals, long-term in vivo studies, CPDB compilation (AID 1745844)
# CONDITION SUMMARY: rat; strain Fischer 344; males; by gavage; site: kidney; lesion: mesenchymal neoplasm; dosed 30 weeks; study length 104 weeks
ENDPOINT: TD50 (mg/kg/day)

[[record]]
line_notation = "CC(=O)CN(N=O)C(N)=O"
reported_result = 0.456


---

# System: rodent lifetime carcinogenesis bioassay, tumor incidence TD50
# PROCEDURE SUMMARY: carcinogenic potency in animals, long-term in vivo studies, CPDB compilation (AID 1745844)
# CONDITION SUMMARY: mouse; strain C57BL; males; by gavage; site: lung; lesion: adenoma; dosed 50 weeks; study length 72 weeks
ENDPOINT: TD50 (mg/kg/day)

[[record]]
line_notation = "CN(C)N=O"
reported_result = 21.1


---

# Test system: rodent lifetime carcinogenesis bioassay, tumor incidence TD50
# PROCEDURE SUMMARY: carcinogenic potency in animals, long-term in vivo studies, CPDB compilation (AID 1745844)
# CONDITION SUMMARY: hamster; strain Syrian Golden; males; by gavage; site: any site (literature study); lesion: several types; types named in the paper; dosed 50 weeks; study length 85 weeks
ENDPOINT: TD50 (mg/kg/day)

[[record]]
line_notation = "O=NN1CCC1"
assayed_target = "rodent lifetime carcinogenesis bioassay, tumor incidence TD50"
endpoint = "TD50"
reported_result = 8.83


---

# Test system: rodent lifetime carcinogenesis bioassay, tumor incidence TD50
# PROCEDURE SUMMARY: carcinogenic potency in animals, long-term in vivo studies, CPDB compilation (AID 1745844)
# CONDITION SUMMARY: rat; strain Fischer 344; females; in drinking water; site: mammary gland; lesion: adenocarcinoma; dosed 107 weeks; study length 107 weeks
ENDPOINT: TD50 (mg/kg/day)

[[record]]
line_notation = "C=CC(N)=O"
endpoint = "TD50"
units_of_measure = "mg/kg/day"
reported_result = 100


---

# Tested on: rodent lifetime carcinogenesis bioassay, tumor incidence TD50
# PROCEDURE SUMMARY: carcinogenic potency in animals, long-term in vivo studies, CPDB compilation (AID 1745844)
# CONDITION SUMMARY: rat; strain Fischer 344; males; by gavage; site: small intestine; lesion: adenocarcinoma; dosed 35 weeks; study length 52 weeks
ENDPOINT: TD50

[[record]]
line_notation = "Cn1c(N)nc2c3cccnc3ccc21"
reported_result = "1.55 mg/kg/day"


---

# Test system: rodent lifetime carcinogenesis bioassay, tumor incidence TD50
# PROCEDURE SUMMARY: carcinogenic potency in animals, long-term in vivo studies, CPDB compilation (AID 1745844)
# CONDITION SUMMARY: mouse; strain ICR; males; in feed; site: liver; lesion: hepatocellular carcinoma; dosed 40 weeks; study length 88 weeks
ENDPOINT: TD50

[[record]]
line_notation = "CC(N)=S"
endpoint = "TD50"
reported_result = "15.3 mg/kg/day"

